# Target Or System: T1, human CD33 (human, UniProt P20138 18-259, limits assumed)
# T1 construct: Human CD33 immobilized on the BLI sensor tip or the BIAcore C1 chip; also called Siglec-3
# T1 sequence (P20138 18-259 limits assumed): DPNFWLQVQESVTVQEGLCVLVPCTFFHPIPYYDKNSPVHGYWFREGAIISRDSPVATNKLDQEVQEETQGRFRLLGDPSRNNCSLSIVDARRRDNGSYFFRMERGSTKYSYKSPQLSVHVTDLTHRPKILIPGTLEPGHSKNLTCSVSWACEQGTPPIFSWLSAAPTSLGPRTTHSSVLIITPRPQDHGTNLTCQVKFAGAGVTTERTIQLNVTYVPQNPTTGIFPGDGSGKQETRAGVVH
# Experiment Summary: BLI (ForteBio), Fab 100 nM on immobilized CD33
Measured Quantity: Fold affinity improvement over parental Ab (AB-H64) (fold)
Output spec: scalar in fold, unitless text.

AB-64.5 (antibody, V domains shown) VH: QVQLVQSGAEVKKPGASVKISCKASGYTFTDYNYHWVRQAPGQGLEWIGFIYPSNGITGYAQKFFGRATLTVDNSTSTAYMELSSLRSEDTAVYYCARSDVDYFDYWGQGTLLTVSS VL: DIVLTQSPDSLAVSLGERATINCRASQSVGTSTYSYMHWYQQKPGQPPKLLIKYASNLESGVPDRFSGSGSGTDFTLTISSLQAEDVAVYYCQHSWEIPLTFGQGTKLEIK	7.76

Exam item: Give the measured Fold affinity improvement over parental Ab (AB-H64) for AB-64.7 (antibody, V domains shown) VH: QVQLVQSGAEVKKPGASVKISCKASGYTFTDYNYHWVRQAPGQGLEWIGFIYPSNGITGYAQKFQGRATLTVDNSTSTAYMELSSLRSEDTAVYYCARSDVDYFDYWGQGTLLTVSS VL: DIVLTQSPDSLAVSLGERATINCRASQSVGTSTYSYMHWYQQKPGQPPKLLIKYASNLNSGVPDRFSGSGSGTDFTLTISSLQAEDVAVYYCQHSEEIPLTFGQGTKLEIK
Marked response: 11.9

Exam item: Give the measured Fold affinity improvement over parental Ab (AB-H64) for AB-64.3 (antibody, V domains shown) VH: QVQLVQSGAEVKKPGASVKISCKASGYTFTDYNLHWVRQAPGQGLEWIGFIYPSNGITGYAEKFEGRATLTVDNSTSTAYMELSSLRSEDTAVYYCARSFVDYFDYWGQGTLLTVSS VL: DIVLTQSPDSLAVSLGERATINCRASQDVSTSTYSYMHWYQQKPGQPPKLLIKYASYLESGVPDRFSGSGSGTDFTLTISSLQAEDVAVYYCEHSWEIPLTFGQGTKLEIK
Marked response: 6.53

Exam item: Give the measured Fold affinity improvement over parental Ab (AB-H64) for AB-64.4 (antibody, V domains shown) VH: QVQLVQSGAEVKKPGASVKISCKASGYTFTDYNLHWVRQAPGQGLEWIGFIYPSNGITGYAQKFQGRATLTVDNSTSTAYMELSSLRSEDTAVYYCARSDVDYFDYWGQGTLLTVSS VL: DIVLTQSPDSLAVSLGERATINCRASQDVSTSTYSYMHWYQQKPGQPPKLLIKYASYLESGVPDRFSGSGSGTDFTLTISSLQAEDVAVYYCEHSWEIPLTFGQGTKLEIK
Marked response: 7.95

Exam item: Give the measured Fold affinity improvement over parental Ab (AB-H64) for AB-64.8 (antibody, V domains shown) VH: QVQLVQSGAEVKKPGASVKISCKASGYTFTDYNYHWVRQAPGQGLEWIGFIYPSNGITGYAQKFQHRATLTVDNSTSTAYMELSSLRSEDTAVYYCARSDVDYFDYWGQGTLLTVSS VL: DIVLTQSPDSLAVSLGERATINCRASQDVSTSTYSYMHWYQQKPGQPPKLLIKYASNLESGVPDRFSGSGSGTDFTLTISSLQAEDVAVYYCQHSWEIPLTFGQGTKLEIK
Marked response: 10.3
